Run Description: Probe fluorescence ratio response to arachidonic acid relative to ADIFAB2
Format: binding
Run Conditions: arachidonic acid; response relative to ADIFAB2
Excerpt: In an alternate preferred embodiment, the protein is rI-FABP that has Ala substituted for Leu at position 72 (rI-FABP-L72A) with the resulting probe named ADIFAB2. […] ADIFAB2 also has an altered spectral response, making it especially useful for measurements of FFAu in blood samples (Apple et al, Clinical Proteomics, (2004) 1:41-44, U.S. patent application Ser. No. 10/670,958). […] The baseline value for this ratio, measured in the absence of analyte, is designated R0. […]
Endpoint: DR/DR AA

{"Molecule": "11W, 72A (protein, listed as Rattus norvegicus, PEPTIDE (1)...(131) wild-type rat intestinal fatty acid binding protein) AFDGTWKVDRWENYEKFMEKMGINVVKRKLGAHDNLKLTITQEGNKFTVKESSNFRNIDVVFELGVDFAYSAADGTELTGTWTMEGNKLVGKFKRVDNGKELIAVREISGNELIQTYTYEGVEAKRIFKKE", "DR/DR AA": 0.430}

// switching to the query molecule
Ask: Item under review: 36K, 72A (protein, listed as Rattus norvegicus, PEPTIDE (1)...(131) wild-type rat intestinal fatty acid binding protein) AFDGTWKVDRNENYEKFMEKMGINVVKRKLGAHDNKKLTITQEGNKFTVKESSNFRNIDVVFELGVDFAYSAADGTELTGTWTMEGNKLVGKFKRVDNGKELIAVREISGNELIQTYTYEGVEAKRIFKKE . Reported DR/DR AA?
Reply: 0.38
